- system.under.test: DCAF15 (Homo sapiens, UniProt Q66K64)
- Sequence (Q66K64 whole entry): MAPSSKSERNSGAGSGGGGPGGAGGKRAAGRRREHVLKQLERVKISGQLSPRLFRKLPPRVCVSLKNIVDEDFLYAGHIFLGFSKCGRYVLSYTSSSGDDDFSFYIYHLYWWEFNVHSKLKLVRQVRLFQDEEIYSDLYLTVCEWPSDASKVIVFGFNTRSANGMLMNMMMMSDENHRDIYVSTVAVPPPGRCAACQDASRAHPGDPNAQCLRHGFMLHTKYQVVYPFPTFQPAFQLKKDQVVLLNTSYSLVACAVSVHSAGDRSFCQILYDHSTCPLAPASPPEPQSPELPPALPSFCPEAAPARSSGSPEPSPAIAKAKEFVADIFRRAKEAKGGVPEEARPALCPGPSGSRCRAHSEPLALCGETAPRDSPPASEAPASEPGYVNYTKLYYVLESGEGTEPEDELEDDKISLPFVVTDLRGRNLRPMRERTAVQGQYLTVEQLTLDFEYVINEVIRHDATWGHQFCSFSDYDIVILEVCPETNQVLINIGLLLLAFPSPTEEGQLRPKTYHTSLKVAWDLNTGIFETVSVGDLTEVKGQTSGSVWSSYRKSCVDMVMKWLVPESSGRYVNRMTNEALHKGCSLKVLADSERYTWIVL
- Sequence (Q16531 whole entry partner): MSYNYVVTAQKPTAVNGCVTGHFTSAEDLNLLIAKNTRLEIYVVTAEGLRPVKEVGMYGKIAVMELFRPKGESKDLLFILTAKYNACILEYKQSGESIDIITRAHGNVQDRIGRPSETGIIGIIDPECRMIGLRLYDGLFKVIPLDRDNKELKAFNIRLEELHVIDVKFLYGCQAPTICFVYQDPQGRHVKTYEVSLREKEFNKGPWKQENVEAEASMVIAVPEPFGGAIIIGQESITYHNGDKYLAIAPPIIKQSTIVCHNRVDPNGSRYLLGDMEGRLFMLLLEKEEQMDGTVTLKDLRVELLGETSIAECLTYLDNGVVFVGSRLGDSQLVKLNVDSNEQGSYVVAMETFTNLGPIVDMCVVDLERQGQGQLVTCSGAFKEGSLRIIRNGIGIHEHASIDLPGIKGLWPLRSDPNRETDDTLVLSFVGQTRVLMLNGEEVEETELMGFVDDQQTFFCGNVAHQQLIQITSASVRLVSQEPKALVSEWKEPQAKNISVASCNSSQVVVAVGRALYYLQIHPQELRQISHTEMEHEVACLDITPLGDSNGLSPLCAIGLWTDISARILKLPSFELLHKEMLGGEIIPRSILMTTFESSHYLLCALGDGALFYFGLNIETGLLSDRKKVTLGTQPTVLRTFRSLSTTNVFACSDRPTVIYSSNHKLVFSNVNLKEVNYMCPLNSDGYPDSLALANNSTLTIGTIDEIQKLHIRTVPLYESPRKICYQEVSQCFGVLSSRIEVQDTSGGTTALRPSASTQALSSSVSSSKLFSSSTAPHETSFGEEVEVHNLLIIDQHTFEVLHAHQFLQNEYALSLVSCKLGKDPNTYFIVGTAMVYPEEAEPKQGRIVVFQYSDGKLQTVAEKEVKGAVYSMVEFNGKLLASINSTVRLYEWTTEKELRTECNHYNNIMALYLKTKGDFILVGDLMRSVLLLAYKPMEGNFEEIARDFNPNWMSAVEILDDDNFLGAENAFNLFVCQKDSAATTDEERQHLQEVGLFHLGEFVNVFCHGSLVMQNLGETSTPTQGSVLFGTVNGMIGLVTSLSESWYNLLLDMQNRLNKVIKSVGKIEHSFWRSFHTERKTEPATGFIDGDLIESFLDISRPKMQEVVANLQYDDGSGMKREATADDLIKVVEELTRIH
- test: Binary interaction between compounds and DCAF15, HTRF competition assay
- Assay type: binding
- condition.details: HTRF competition with Alexa Fluor 647 tracer, His-tagged DCAF15 complex; read-out: DCAF15 IC50
- Method: DCAF15 interactions with test compounds were monitored using HTRF competition assays (Cisbio, Bedford, MA). […] These two solutions were mixed and incubated for 15 min at room temperature. 9.8 ul of the tracer solution and 10 ul of the DCAF15/mAb Anti-6His-Eu cryptate Gold mixture were added sequentially to each well in the assay plate. Reaction mixtures with no DCAF15 added were included as positive controls. […]
pIC50: −log10 of the molar value.
Record form. Attribute: pIC50. Fill in for each entry.

INPUT: // lookup pIC50 for Cc1ccc(NS(=O)(=O)c2ccc(S(=O)(=O)N3CCC(N(C)C)C3)cc2)c2[nH]cc(C#N)c12 (centres unmarked)
OUTPUT: > 4.70

INPUT: Next compound up: O=S(=O)(NCCCOCc1ccccc1)c1ccc(S(=O)(=O)Nc2ccc(Cl)c3c(Cl)c[nH]c23)cc1
OUTPUT: > 4.00

INPUT: Next compound up: O=S(=O)(Nc1ccc(Cl)c2c(Cl)c[nH]c12)c1ccc(S(=O)(=O)N2CCc3[nH]c(-c4ccccc4)nc3C2)cc1
OUTPUT: > 4.00

INPUT: Next compound up: CC(C)(C)OC(=O)N1CCC2(CC1)CN(S(=O)(=O)c1ccc(S(=O)(=O)Nc3ccc(Cl)c4c(Cl)c[nH]c34)cc1)CCO2
OUTPUT: > 4.70

INPUT: Next compound up: COC(=O)CNS(=O)(=O)c1ccc(S(=O)(=O)Nc2ccc(Cl)c3c(Cl)c[nH]c23)cc1
OUTPUT: > 4.00

INPUT: Next compound up: CCCN(C1CCNCC1)S(=O)(=O)c1ccc(S(=O)(=O)Nc2ccc(Cl)c3c(Cl)c[nH]c23)cc1
OUTPUT: > 5.30

INPUT: Next compound up: Cc1cc(CNS(=O)(=O)c2ccc(S(=O)(=O)Nc3ccc(Cl)c4c(Cl)c[nH]c34)cc2)nn1C
OUTPUT: > 5.30

INPUT: Next compound up: O=S(=O)(Nc1ccc(Cl)c2c(Cl)c[nH]c12)c1cccc(Br)c1
OUTPUT: > 4.70

INPUT: Next compound up: O=C1NCCCCC1NS(=O)(=O)c1ccc(S(=O)(=O)Nc2ccc(Cl)c3c(Cl)c[nH]c23)cc1 (centres unmarked)
OUTPUT: > 5.30

INPUT: Next compound up: COc1cccc(Oc2ccc(CNS(=O)(=O)c3ccc(S(=O)(=O)Nc4ccc(Cl)c5c(Cl)c[nH]c45)cc3)cn2)c1
OUTPUT: > 4.70

INPUT: Next compound up: O=S(=O)(NCC1CCN(CCCc2ccccc2)CC1)c1ccc(S(=O)(=O)Nc2ccc(Cl)c3c(Cl)c[nH]c23)cc1
OUTPUT: > 5.30

INPUT: Next compound up: CCc1nc(CN(C)S(=O)(=O)c2ccc(S(=O)(=O)Nc3ccc(Cl)c4c(Cl)c[nH]c34)cc2)no1
OUTPUT: > 5.30

INPUT: Next compound up: Cc1ccc(NS(=O)(=O)c2cc(F)cc(C#N)c2)c2[nH]cc(C(F)F)c12
OUTPUT: > 4.00

INPUT: Next compound up: CCCC1CN(S(=O)(=O)c2ccc(S(=O)(=O)Nc3ccc(Cl)c4c(Cl)c[nH]c34)cc2)CCN1 (centres unmarked)
OUTPUT: > 5.30

###

- system.under.test: UniProt:Q66K64
- test: Binary interaction between compounds and DCAF15, HTRF competition assay
- Assay type: binding
- condition.details: HTRF competition with Alexa Fluor 647 tracer, His-tagged DCAF15 complex; read-out: DCAF15 IC50
- Description: DCAF15 interactions with test compounds were monitored using HTRF competition assays (Cisbio, Bedford, MA). […] These two solutions were mixed and incubated for 15 min at room temperature. 9.8 ul of the tracer solution and 10 ul of the DCAF15/mAb Anti-6His-Eu cryptate Gold mixture were added sequentially to each well in the assay plate. Reaction mixtures with no DCAF15 added were included as positive controls. […]
pIC50: −log10 of the molar value.
reported.metric: pIC50

INPUT: Any idea what pIC50 came out for Cc1ccc(NS(=O)(=O)c2ccc(S(=O)(=O)N(C)C3CCNCC3)cc2)c2[nH]cc(C#N)c12 [Compound 78] on UniProt:Q66K64?
OUTPUT: > 5.30

INPUT: Next molecule up: CCN=S(=O)(c1ccc(S(=O)(=O)Nc2ccc(Cl)c3c(Cl)c[nH]c23)cc1)N1CCNCC1 (stereo not drawn) [Compound 69]
OUTPUT: > 4.00

INPUT: Next molecule up: Cn1cc(-c2ccc(S(=O)(=O)Nc3ccc(Cl)c4c(Cl)c[nH]c34)cc2)cn1 [Compound 61]
OUTPUT: > 5.30

INPUT: Next molecule up: Cc1ccc(NS(=O)(=O)c2ccc(S(=O)(=O)N3CCN4CCCC4C3)cc2)c2[nH]cc(C#N)c12 (stereo not drawn) [Compound 91]
OUTPUT: > 4.00

INPUT: Next molecule up: O=C1CCC(NS(=O)(=O)c2ccc(S(=O)(=O)Nc3ccc(Cl)c4c(Cl)c[nH]c34)cc2)CN1 (stereo not drawn) [Compound 31]
OUTPUT: > 5.30

INPUT: Next molecule up: CN1CC(NS(=O)(=O)c2ccc(S(=O)(=O)Nc3ccc(Cl)c4c(Cl)c[nH]c34)cc2)CCC1=O (stereo not drawn) [Compound 32]
OUTPUT: > 5.30

INPUT: Next molecule up: O=S(=O)(Nc1ccc(Cl)c2c(Cl)c[nH]c12)c1ccc(S(=O)(=O)N2CCC(O)CC2)cc1 [Compound 38]
OUTPUT: > 5.30

INPUT: Next molecule up: N#Cc1ccc(NS(=O)(=O)c2ccc(S(=O)(=O)N3CCNCC3)cc2)c2[nH]cc(Cl)c12 [Compound 88]
OUTPUT: > 4.70

INPUT: Next molecule up: Cc1ccc(NS(=O)(=O)c2ccc(S(=O)(=O)N3CCC(N)CC3)cc2)c2[nH]cc(C#N)c12 [Compound 81]
OUTPUT: > 5.30

INPUT: Next molecule up: CN(C)C(=O)c1ccc(CCNS(=O)(=O)c2ccc(S(=O)(=O)Nc3ccc(Cl)c4c(Cl)c[nH]c34)cc2)cc1 [Compound 23]
OUTPUT: > 4.70

INPUT: Next molecule up: O=S(=O)(Nc1ccc(Cl)c2c(Cl)c[nH]c12)c1ccc(C(F)(F)C2CCNCC2)cc1 [Compound 70]
OUTPUT: > 5.30

INPUT: Next molecule up: Cc1ccnc(C(NS(=O)(=O)c2ccc(S(=O)(=O)Nc3ccc(Cl)c4c(Cl)c[nH]c34)cc2)C2CC2)c1 (stereo not drawn) [Compound 18]
OUTPUT: > 4.70

INPUT: Next molecule up: CC(C)(C)OC(=O)NC1(CNS(=O)(=O)c2ccc(S(=O)(=O)Nc3ccc(Cl)c4c(Cl)c[nH]c34)cc2)CC1 [Compound 9]
OUTPUT: > 4.70

INPUT: Next molecule up: O=S(=O)(Nc1ccc(Cl)c2c(Cl)c[nH]c12)c1ccc(S(=O)(=O)N2CCNCC2)cc1F [Compound 44]
OUTPUT: > 5.30

INPUT: Next molecule up: O=C1CCC(NS(=O)(=O)c2ccc(S(=O)(=O)Nc3ccc(Cl)c4c(Cl)c[nH]c34)c(F)c2)CN1 (stereo not drawn) [compound 105]
OUTPUT: > 4.70

INPUT: Next molecule up: O=S(=O)(Nc1ccc(Cl)c2cc[nH]c12)c1ccc(S(=O)(=O)N2CCNCC2)cc1 [Compound 87]
OUTPUT: > 4.70

INPUT: Next molecule up: CC1CN(S(=O)(=O)c2ccc(S(=O)(=O)Nc3ccc(Cl)c4c(Cl)c[nH]c34)cc2)CCN1 (stereo not drawn) [compound 109]
OUTPUT: > 5.30

INPUT: Next molecule up: Cc1ccc(NS(=O)(=O)c2ccc(S(=O)(=O)N3CC4CNCC4C3)cc2)c2[nH]cc(C#N)c12 (stereo not drawn) [Compound 92]
OUTPUT: > 4.70

INPUT: Next molecule up: CCCN(c1ccc(S(=O)(=O)Nc2ccc(Cl)c3c(Cl)c[nH]c23)cc1)S(=O)(=O)N1CCNCC1 [Compound 67]
OUTPUT: > 5.30

INPUT: Next molecule up: O=C(CCCNS(=O)(=O)c1ccc(S(=O)(=O)Nc2ccc(Cl)c3c(Cl)c[nH]c23)cc1)N1CCCC1 [Compound 27]
OUTPUT: > 5.30

INPUT: Next molecule up: Cc1ccc(NS(=O)(=O)c2cccc(-n3ccnn3)c2)c2[nH]cc(C#N)c12 [Compound 96]
OUTPUT: > 4.70

###

- system.under.test: DCAF15-RBM39 ternary complex (Homo sapiens, UniProt Q14498+Q66K64)
- Construct: (RRM2)
- Sequence (Q66K64 whole entry): as the sequence (Q66K64 whole entry) above
- Sequence (Q14498 250-328 limits assumed): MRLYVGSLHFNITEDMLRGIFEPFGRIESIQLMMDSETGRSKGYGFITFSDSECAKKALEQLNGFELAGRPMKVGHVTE
- Sequence (Q16531 whole entry partner): as the sequence (Q16531 whole entry partner) above
- test: Compound-induced DCAF15-RBM39 ternary complex formation, AlphaLISA
- Format: biochemical
- condition.details: AlphaLISA, His-tagged DCAF15 complex and biotin-carrying RBM39; read-out: Ternary-RBM39 (RRM2) EC50
- Protocol: Compound-induced DCAF15-RBM39 ternary complex formation was monitored using AlphaLISA® assays (Perkin Elmer, Waltham, MA). […] 9.8 ul of this protein mixture was then mixed with the compounds in the assay plate and incubated for one hour at room temperature. Reaction mixtures with no compounds added were included as negative controls, while a His-tagged and biotinylated GST protein was included to track general assay performance. […]
reported.metric: EC50

INPUT: // lookup EC50 for O=S(=O)(Nc1ccc(Cl)c2c(Cl)c[nH]c12)c1ccc(C2(N3CCNCC3)COC2)cc1
OUTPUT: < 1000 nM

INPUT: Next molecule up: Cc1cc(CNS(=O)(=O)c2ccc(S(=O)(=O)Nc3ccc(Cl)c4c(Cl)c[nH]c34)cc2)nn1C
OUTPUT: < 20000 nM

INPUT: Next molecule up: CN1CCC(S(=O)(=O)c2ccc(S(=O)(=O)Nc3ccc(Cl)c4c(Cl)c[nH]c34)cc2)CC1
OUTPUT: < 1000 nM

INPUT: Next molecule up: COCCOCCCNS(=O)(=O)c1ccc(S(=O)(=O)Nc2ccc(Cl)c3c(Cl)c[nH]c23)cc1
OUTPUT: < 5000 nM

INPUT: Next molecule up: CC(C)(C)OC(=O)N1CCC2(CC1)CN(S(=O)(=O)c1ccc(S(=O)(=O)Nc3ccc(Cl)c4c(Cl)c[nH]c34)cc1)CCO2
OUTPUT: < 5000 nM

INPUT: Next molecule up: COCCNS(=O)(=O)c1ccc(S(=O)(=O)Nc2ccc(Cl)c3c(Cl)c[nH]c23)cc1
OUTPUT: < 1000 nM
